# credit: paper PMC10433104

assayedSystem: PDE4D7-S129D (PDE4D*) (Homo sapiens, UniProt Q08499, S190D)
Sequence (Q08499 1-748 isoform Q08499-11 S129D, species assumed): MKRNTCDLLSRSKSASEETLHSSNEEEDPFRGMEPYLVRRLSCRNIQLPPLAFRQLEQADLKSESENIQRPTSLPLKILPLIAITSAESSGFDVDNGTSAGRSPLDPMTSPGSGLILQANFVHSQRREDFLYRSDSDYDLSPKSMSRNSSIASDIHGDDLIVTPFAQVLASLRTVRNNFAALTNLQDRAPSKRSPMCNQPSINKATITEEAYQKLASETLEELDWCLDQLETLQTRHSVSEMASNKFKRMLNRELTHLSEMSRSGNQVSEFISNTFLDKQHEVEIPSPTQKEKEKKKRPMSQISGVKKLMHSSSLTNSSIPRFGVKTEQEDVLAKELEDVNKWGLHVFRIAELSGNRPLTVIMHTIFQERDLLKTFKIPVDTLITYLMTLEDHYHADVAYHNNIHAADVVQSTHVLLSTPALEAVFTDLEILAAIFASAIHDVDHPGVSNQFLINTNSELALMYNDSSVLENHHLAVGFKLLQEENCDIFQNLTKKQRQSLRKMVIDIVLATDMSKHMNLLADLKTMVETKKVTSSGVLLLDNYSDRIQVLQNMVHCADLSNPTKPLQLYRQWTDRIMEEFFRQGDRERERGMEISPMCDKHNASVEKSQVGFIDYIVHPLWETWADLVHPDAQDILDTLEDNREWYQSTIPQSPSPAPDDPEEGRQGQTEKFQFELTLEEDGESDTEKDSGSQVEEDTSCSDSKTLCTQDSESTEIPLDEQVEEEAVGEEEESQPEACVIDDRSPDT
protocolSummary: PDE4 enzyme inhibition assay
Type: biochemical
conditionNotes: ratio of IC50 for PDE4B* over that for PDE4D*
measurementKind: Selectivity B/D

COc1ccc(Cc2ccc(CCO)cc2)nc1-c1cccc(OC(F)F)c1 [Compound 53] | >2519

Any idea what its Selectivity B/D is? The molecule is FC(F)Oc1cccc(-c2nc(Cc3ccncc3)ccc2OCc2ccccc2)c1 [Compound 58]
>13

And then COc1ccc(Cn2ncnn2)nc1-c1cccc(OC(F)F)c1 [Compound 34] , what is it?
>472

And then COc1ccc(Cn2cccn2)nc1-c1cccc(F)c1 [Compound 24] , what is it?
>2
